Values were extracted from patent US8519110B2.

Recorded Translation efficiency in comparison with m^7GpppG-LUC mRNA, Experiment No. 2 values for a group of compounds are listed next.
System: rabbit reticulocyte lysate system
test method notes: In vitro translation efficiency of capped luciferase mRNA, method I transcripts
Type: biochemical
test parameters: experiment 2

Consider the following illustrative entries.
compound	tested on	measurement
Cn1c[n+]([C@@H]2O[C@H](COP(=O)(O)OP(=O)(O)OP(=O)(O)OC[C@H]3O[C@@H](n4cnc5c(=O)[nH]c(N)nc54)[C@H](O)[C@@H]3O)[C@@H](O)[C@H]2O)c2nc(N)[nH]c(=O)c21 [m^7GpppG, m^7G(5′)ppp(5′)G, reference compound]	rabbit reticulocyte lysate system	1.00
Nc1nc2c(ncn2[C@@H]2O[C@H](COP(=O)(O)OP(=O)(O)OP(=O)(O)OC[C@H]3O[C@@H](n4cnc5c(N)ncnc54)[C@H](O)[C@@H]3O)[C@@H](O)[C@H]2O)c(=O)[nH]1 [ApppG, reference compound]	rabbit reticulocyte lysate system	0.55
CO[C@H]1[C@@H](O)[C@H]([n+]2cn(C)c3c(=O)[nH]c(N)nc32)O[C@@H]1COP(=O)([O-])OP(=O)(O)OP(=O)(O)OC[C@H]1O[C@@H](n2cnc3c(=O)[nH]c(N)nc32)[C@H](O)[C@@H]1O [m2^7,3′-OGpppG, 7-methyl(3′-O-methyl)GpppG, reference compound]	rabbit reticulocyte lysate system	2.92

Please give measured Translation efficiency in comparison with m^7GpppG-LUC mRNA, Experiment No. 2 of the following entry: [BH3-]P(=O)(OP(=O)(O)OCC1OC(n2cnc3c(=O)[nH]c(N)nc32)C(O)C1O)OP(=O)(O)OCC1OC(n2c[n+](C)c3c(=O)[nH]c(N)nc32)C(O)C1O (mixture of isomers) [m^7GppBH3pG]
1.42

---

tested on: cap-dependent translation of luciferase mRNA in reticulocyte lysate
test method notes: Inhibition of cap-dependent translation in vitro by free cap analogs
Format: biochemical, rabbit
test parameters: cap analog added together with luciferase mRNA; read-out: Inhibition of in vitro translation (IC50), condition A
Field 'label' (enum: criterion met / criterion not met). Set to criterion met when IC50 is strictly under 3 µM; else criterion not met.

Record excerpt, results attached:
compound	qualitative label
[BH3-]P(=O)(OC[C@H]1O[C@@H](n2cnc3c(=O)[nH]c(N)nc32)[C@H](O)[C@@H]1O)OP(=O)(O)OP(=O)(O)OC[C@H]1O[C@@H](n2c[n+](C)c3c(=O)[nH]c(N)nc32)[C@H](O)[C@@H]1O (single isomer, unassigned) [m^7GpppBH3G (D1), m^7GpppBH3G]	criterion not met
[BH3-]P(=O)(OP(=O)(O)OCC1OC(n2cnc3c(=O)[nH]c(N)nc32)C(O)C1O)OP(=O)(O)OCC1OC(n2c[n+](C)c3c(=O)[nH]c(N)nc32)C(O)C1O (single isomer, unassigned) [m^7GppBH3pG (D2), m^7GppBH3pG]	criterion not met
[BH3-]P(=O)(OP(=O)(O)OCC1OC(n2cnc3c(=O)[nH]c(N)nc32)C(O)C1O)OP(=O)(O)OCC1OC(n2c[n+](C)c3c(=O)[nH]c(N)nc32)C(O)C1O (single isomer, unassigned) [m^7GppBH3pG (D1), m^7GppBH3pG]	criterion met

Threshold test, IC50 < 3 µM: [BH3-]P(=O)(OC[C@H]1O[C@@H](n2cnc3c(=O)[nH]c(N)nc32)[C@H](O)[C@@H]1O)OP(=O)(O)OP(=O)(O)OC[C@H]1O[C@@H](n2c[n+](C)c3c(=O)[nH]c(N)nc32)[C@H](O)[C@@H]1O (single isomer, unassigned) [m^7GpppBH3G (D2), m^7GpppBH3G]
criterion not met

Threshold test, IC50 < 3 µM: Cn1c[n+]([C@@H]2O[C@H](COP(=O)(O)OP(=O)(O)OP(=O)(O)OC[C@H]3O[C@@H](n4cnc5c(=O)[nH]c(N)nc54)[C@H](O)[C@@H]3O)[C@@H](O)[C@H]2O)c2nc(N)[nH]c(=O)c21 [m^7GpppG, m^7G(5′)ppp(5′)G, reference compound]
criterion not met
